Experiment: surface tension of aqueous surfactant solutions and critical micelle concentration (K-12 Processor Tensiometer)
Type: physicochemical
Conditions: deionized water; Table 3
Protocol: Critical Micelle Concentration (CMC): The critical micelle concentration is defined as the concentration at which further surface tension is no longer lowered with increasing levels of surfactant. […] Surface tension is then plotted vs. log concentration and the data points are connected. […] Then the critical micelle concentration (CMC) was determined for each surfactant.
measure_name: Surf. Tens. at the CMC (dynes/cm)

1. O=C(NCCC[N+]1(CCO)CCOCC1)C(F)(C(F)(F)F)C(F)(F)C(F)(F)C(F)(F)C(F)(F)C(F)(F)C(F)(F)C(F)(F)F (stereo not drawn) | 20.8
2. C[N+](C)(CCCN(CCC[N+](C)(C)CCC(=O)[O-])C(=O)C(F)(C(F)(F)F)C(F)(F)C(F)(F)C(F)(F)C(F)(F)C(F)(F)C(F)(F)C(F)(F)F)CCC(=O)[O-] (stereo not drawn) | 23.6
3. C[N+](C)(CCCNC(=O)C(F)(C(F)(F)F)C(F)(F)C(F)(F)C(F)(F)C(F)(F)C(F)(F)C(F)(F)C(F)(F)F)CCC(=O)[O-] (stereo not drawn) | 16.6
4. C[N+](C)(CCO)CCCNC(=O)C(F)(C(F)(F)F)C(F)(F)C(F)(F)C(F)(F)C(F)(F)C(F)(F)C(F)(F)C(F)(F)F (stereo not drawn) | 19.0
5. C[N+](C)([O-])CCCNC(=O)C(F)(C(F)(F)F)C(F)(F)C(F)(F)C(F)(F)C(F)(F)C(F)(F)F (stereo not drawn) [Example E2, C5 F11 CF(CF3)CONH(CH2)3 N^+ (CH3)2 O^-] | 17.5
6. O=C(NCCOC(=O)C(F)(C(F)(F)F)C(F)(F)C(F)(F)C(F)(F)C(F)(F)C(F)(F)C(F)(F)F)c1cc[n+]([O-])cc1 (stereo not drawn) | 15.5

====

Collected CMC values appear next to each entry.
assay: surface tension of aqueous surfactant solutions and critical micelle concentration (K-12 Processor Tensiometer); format: physicochemical; settings: deionized water; Table 3
measure_name: CMC (ppm)

1. C[N+](C)([O-])CCCNC(=O)C(F)(C(F)(F)F)C(F)(F)C(F)(F)C(F)(F)C(F)(F)C(F)(F)C(F)(F)C(F)(F)F (stereo not drawn) [Example E1, C7 F15 CF(CF3)CONH(CH2)3 N^+ (CH3)2 O^-] | 20
2. C[N+](C)([O-])CCCNC(=O)C(F)(C(F)(F)F)C(F)(F)C(F)(F)C(F)(F)C(F)(F)C(F)(F)F (stereo not drawn) [Example E2, C5 F11 CF(CF3)CONH(CH2)3 N^+ (CH3)2 O^-] | 500
3. C[n+]1ccc(C(=O)NCCOC(=O)C(F)(C(F)(F)F)C(F)(F)C(F)(F)C(F)(F)C(F)(F)C(F)(F)C(F)(F)C(F)(F)F)cc1 (stereo not drawn) | 500
4. C[n+]1ccc(C(=O)NCCOC(=O)C(F)(C(F)(F)F)C(F)(F)C(F)(F)C(F)(F)C(F)(F)C(F)(F)C(F)(F)F)cc1 (stereo not drawn) | 30
5. O=C(OCCc1cccc[n+]1[O-])C(F)(C(F)(F)F)C(F)(F)C(F)(F)C(F)(F)C(F)(F)C(F)(F)C(F)(F)F (stereo not drawn) | 8000
6. C[N+](C)([O-])CCCNC(=O)C(F)(C(F)(F)F)C(F)(F)C(F)(F)C(F)(F)C(F)(F)C(F)(F)C(F)(F)C(F)(F)C(F)(F)F (stereo not drawn) | 20
